- Test system: 485368-065-R3-J5-PDC spheroids with HUVEC/MSC, viability;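 further: spheroids exposed to agents for seven days before readout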
- procedureText: Anticancer human tumor 485368-065-R3-J5-PDC patient-derived pancreatic carcinoma cell line growth inhibition [RAS]
- conditionSummary: second compound 0.003 µM; first compound 0.1 µM; hits give low values
Parameter class (string): assigned from measured viability, T/C. Ranges: lo = under 20%, mid = from 20% up to 90%, hi = 90% and over

- molecule: "Cc1nc(N2CCC3(CC2)COC(C)C3N)c(CO)nc1Sc1ccnc(N)c1Cl (stereo not given) + CCn1c(-c2cccnc2C(C)OC)c2c3cc(ccc31)N1CCOC(CC(NC(=O)C(C(C)C)N(C)C(=O)C3(F)CCN(C(=O)C#CC(C)(C)N(C)C)CC3)C(=O)N3CCCC(N3)C(=O)OCC(C)(C)C2)C1"
  studyTarget: "485368-065-R3-J5-PDC spheroids with HUVEC/MSC, viability"
  categoryLabel: "hi"
- molecule: "NC1c2ccccc2OC12CCN(c1cnc3c(N4CCCc5ncccc54)n[nH]c3n1)CC2 (stereo not given) + CCn1c(-c2cc(N3CCN(C)CC3)cnc2C(C)OC)c2c3cc(ccc31)-c1csc(n1)CC(NC(=O)C1CC1C)C(=O)N1CCCC(N1)C(=O)OCC(C)(C)C2"
  studyTarget: "485368-065-R3-J5-PDC spheroids with HUVEC/MSC, viability"
  categoryLabel: "lo"
- molecule: "C=CC(=O)N1CCN(c2nc(OCC3CCCN3C)nc3c(F)c(-c4nc(N)cc(C)c4C(F)(F)F)c(Cl)cc23)C(C)C1 (stereo not given) + CCn1c(-c2cccnc2C(C)OC)c2c3cc(ccc31)N1CCOC(CC(NC(=O)C(C(C)C)N(C)C(=O)C3(F)CCN(C(=O)C#CC(C)(C)N(C)C)CC3)C(=O)N3CCCC(N3)C(=O)OCC(C)(C)C2)C1"
  studyTarget: "485368-065-R3-J5-PDC spheroids with HUVEC/MSC, viability"
  categoryLabel: "hi"
- molecule: "CCC(CC)c1cc(NC2CCC(N)C2)n2nccc2n1 (stereo not given) + CCn1c(-c2cc(N3CCN(C)CC3)cnc2C(C)OC)c2c3cc(ccc31)-c1csc(n1)CC(NC(=O)C1CC1C)C(=O)N1CCCC(N1)C(=O)OCC(C)(C)C2"
  studyTarget: "485368-065-R3-J5-PDC spheroids with HUVEC/MSC, viability"
  categoryLabel: "mid"
- molecule: "CC(=O)OC12COC1CC(O)C1(C)C(=O)C(O)C3=C(C)C(OC(=O)C(O)C(NC(=O)OC(C)(C)C)c4ccccc4)CC(O)(C(OC(=O)c4ccccc4)C21)C3(C)C (stereo not given) + CCn1c(-c2cccnc2C(C)OC)c2c3cc(ccc31)N1CCOC(CC(NC(=O)C(C(C)C)N(C)C(=O)C3(F)CCN(C(=O)C#CC(C)(C)N(C)C)CC3)C(=O)N3CCCC(N3)C(=O)OCC(C)(C)C2)C1"
  studyTarget: "485368-065-R3-J5-PDC spheroids with HUVEC/MSC, viability"
  categoryLabel: "lo"
- molecule: "CC1(O)CCCC1n1c(=O)c(C(F)F)cc2cnc(NC3CCN(S(C)(=O)=O)CC3)nc21 (stereo not given) + CCn1c(-c2cccnc2C(C)OC)c2c3cc(ccc31)N1CCOC(CC(NC(=O)C(C(C)C)N(C)C(=O)C3(F)CCN(C(=O)C#CC(C)(C)N(C)C)CC3)C(=O)N3CCCC(N3)C(=O)OCC(C)(C)C2)C1"
  studyTarget: "485368-065-R3-J5-PDC spheroids with HUVEC/MSC, viability"
  categoryLabel: "mid"
- molecule: "CC(C)n1nc(-c2ccc3oc(N)nc3c2)c2c(N)ncnc21 + CCn1c(-c2cc(N3CCN(C)CC3)cnc2C(C)OC)c2c3cc(ccc31)-c1csc(n1)CC(NC(=O)C1CC1C)C(=O)N1CCCC(N1)C(=O)OCC(C)(C)C2"
  studyTarget: "485368-065-R3-J5-PDC spheroids with HUVEC/MSC, viability"
  categoryLabel: "lo"
- molecule: "C=CC(=O)N1CCN(c2nc(OCC3CCCN3C)nc3c(F)c(-c4nc(N)cc(C)c4C(F)(F)F)c(Cl)cc23)C(C)C1 (stereo not given) + CCn1c(-c2cc(N3CCN(C)CC3)cnc2C(C)OC)c2c3cc(ccc31)-c1csc(n1)CC(NC(=O)C1CC1C)C(=O)N1CCCC(N1)C(=O)OCC(C)(C)C2"
  studyTarget: "485368-065-R3-J5-PDC spheroids with HUVEC/MSC, viability"
  categoryLabel: "mid"
- molecule: "CCC(CC)c1cc(NC2CCC(N)C2)n2nccc2n1 (stereo not given) + CCn1c(-c2cccnc2C(C)OC)c2c3cc(ccc31)N1CCOC(CC(NC(=O)C(C(C)C)N(C)C(=O)C3(F)CCN(C(=O)C#CC(C)(C)N(C)C)CC3)C(=O)N3CCCC(N3)C(=O)OCC(C)(C)C2)C1"
  studyTarget: "485368-065-R3-J5-PDC spheroids with HUVEC/MSC, viability"
  categoryLabel: "hi"
- molecule: "CCN1CCN(Cc2ccc(Nc3ncc(F)c(-c4cc(F)c5nc(C)n(C(C)C)c5c4)n3)nc2)CC1 + CCn1c(-c2cccnc2C(C)OC)c2c3cc(ccc31)N1CCOC(CC(NC(=O)C(C(C)C)N(C)C(=O)C3(F)CCN(C(=O)C#CC(C)(C)N(C)C)CC3)C(=O)N3CCCC(N3)C(=O)OCC(C)(C)C2)C1"
  studyTarget: "485368-065-R3-J5-PDC spheroids with HUVEC/MSC, viability"
  categoryLabel: "mid"
- molecule: "O=C(c1ccc(F)c(F)c1Nc1ccc(I)cc1F)N1CC(O)([C@@H]2CCCCN2)C1 + CCn1c(-c2cccnc2C(C)OC)c2c3cc(ccc31)N1CCOC(CC(NC(=O)C(C(C)C)N(C)C(=O)C3(F)CCN(C(=O)C#CC(C)(C)N(C)C)CC3)C(=O)N3CCCC(N3)C(=O)OCC(C)(C)C2)C1"
  studyTarget: "485368-065-R3-J5-PDC spheroids with HUVEC/MSC, viability"
  categoryLabel: "mid"
- molecule: "C=CC(=O)Nc1cc(Nc2nccc(-c3cn(C)c4ccccc34)n2)c(OC)cc1N(C)CCN(C)C + CCn1c(-c2cccnc2C(C)OC)c2c3cc(ccc31)N1CCOC(CC(NC(=O)C(C(C)C)N(C)C(=O)C3(F)CCN(C(=O)C#CC(C)(C)N(C)C)CC3)C(=O)N3CCCC(N3)C(=O)OCC(C)(C)C2)C1"
  studyTarget: "485368-065-R3-J5-PDC spheroids with HUVEC/MSC, viability"
  categoryLabel: "hi"
- molecule: "Nc1ccn(C2OC(CO)C(O)C2(F)F)c(=O)n1 (stereo not given) + CCn1c(-c2cc(N3CCN(C)CC3)cnc2C(C)OC)c2c3cc(ccc31)-c1csc(n1)CC(NC(=O)C1CC1C)C(=O)N1CCCC(N1)C(=O)OCC(C)(C)C2"
  studyTarget: "485368-065-R3-J5-PDC spheroids with HUVEC/MSC, viability"
  categoryLabel: "lo"
- molecule: "CC(Nc1ccc2c(c1)OCCn1cc(N3C(=O)OCC3C(F)F)nc1-2)C(N)=O (stereo not given) + CCn1c(-c2cccnc2C(C)OC)c2c3cc(ccc31)N1CCOC(CC(NC(=O)C(C(C)C)N(C)C(=O)C3(F)CCN(C(=O)C#CC(C)(C)N(C)C)CC3)C(=O)N3CCCC(N3)C(=O)OCC(C)(C)C2)C1"
  studyTarget: "485368-065-R3-J5-PDC spheroids with HUVEC/MSC, viability"
  categoryLabel: "hi"
